Assay: Lipophilicity, log P of the compound
Type: physicochemical
Details: octanol/water
Provide the reported logP of each item.
Numbers only.

Reference set (5 entries):
SMILES RECORD: COC(=O)c1c(C)nc(C)c2c1C(=O)C=C(Nc1cc(OC)ccc1OC)C2=O
logP: 1.19
--
SMILES RECORD: COC(=O)c1c(C)nc(C)c2c1C(=O)C=C(Nc1ccc(F)cc1)C2=O
logP: 1.6
--
SMILES RECORD: COC(=O)c1c(C)nc(C)c2c1C(=O)C=C(NC13CC4CC(CC(C4)C1)C3)C2=O
logP: 1.61
--
SMILES RECORD: CCN(C1=CC(=O)c2c(C(=O)OC)c(C)nc(C)c2C1=O)c1ccccc1
logP: 2.57
--
SMILES RECORD: COC(=O)c1c(C)nc(C)c2c1C(=O)C=C(N1CCOCC1)C2=O
logP: -0.243

Your task in this section: give logP for each listed record.
1. CCCCNC1=CC(=O)c2c(C(=O)OC)c(C)nc(C)c2C1=O
2. COC(=O)c1c(C)nc(C)c2c1C(=O)C=C(NC1CCCCC1)C2=O
3. COC(=O)c1c(C)nc(C)c2c1C(=O)C=C(Nc1ccc(O)cc1)C2=O

Result:
1. 1.02
2. 1.33
3. 1.05

---

Provide the reported logP of each item.
Experiment: Lipophilicity, log P of the compound
Type: physicochemical
Conditions: octanol/water
Give bare numbers.

Reference set (2 entries):
SMILES RECORD: COC(=O)c1c(C)nc(C)c2c1C(=O)C=C(Nc1ccc(OC)cc1)C2=O
logP: 1.32
//
SMILES RECORD: COC(=O)c1c(C)nc(C)c2c1C(=O)C=C(N(C)c1ccccc1)C2=O
logP: 2.23

Attention now shifts to the item below.
Task: // fetch logP given entry COC(=O)c1c(C)nc(C)c2c1C(=O)C=C(Nc1ccccc1)C2=O
Result: 1.44
